For each record, write down the corresponding inhibition.
Target: Genome polyprotein (Dengue virus type 2 (strain 16681-PDK53))
Assay: flavivirus cap methylation enzyme inhibition – biochemical, confirmation dose response, primary screen (AID 588689)
Details: Dengue-2 NS5 methyltransferase capping enzyme assay, at 25 µM, stronger effect = higher value
Among all 340,000 compounds or so, about 1,000 (0.29%) were called active. A selection follows. Results with a measured potency or affinity are listed apart.
Give bare numbers, in %.

Solved cases below.
O=C(CN1C(=O)NC2(CCCC2)C1=O)OCCOc1ccc(Br)cc1 -1.44
N#CCCN(C(=O)COC(=O)CNS(=O)(=O)c1ccc2ccccc2c1)c1ccccc1 1.1

Consider the additional compound presented here.
inhibition of Cc1cc(=O)n(C)c2ccccc12 on Genome polyprotein (Dengue virus type 2 (strain 16681-PDK53))?
-7.77

###

Biological target: Genome polyprotein (Dengue virus type 2 (strain 16681-PDK53))
Test: flavivirus cap methylation enzyme inhibition – biochemical, confirmation dose response, primary screen (AID 588689)
Details: Dengue-2 NS5 methyltransferase capping enzyme assay, at 25 µM, stronger effect = higher value
Among all 340,000 compounds or so, about 1,000 (0.29%) were called active. Not all results are given here. Potency and affinity values are given separately.
Would you mind telling me the reported inhibition of each entry?
Give bare numbers, in %.

Worked cases, inhibition given:
compound	inhibition, %
Cc1cc(-c2ccc(S(=O)(=O)NCc3ccc(F)cc3)cc2)on1	-4.39
COC(=O)CCC(=O)OC1(C)C(=O)C2=CN(CCc3c[nH]c4ccccc34)C(c3ccc(OC)cc3)=CC2=C(Br)C1=O (centres undefined)	-2.45
O=C1C(=O)c2c(ccc3ccccc23)-c2ccccc21	8.87
Cc1cc(C(=O)OC(C)C(=O)NC2CCCCC2)c(C)o1 (centres undefined)	3.67

Dear reader, for each entry below, please note its inhibition.
1. COc1ccc(S(=O)(=O)NCC2CCCN(C(=O)CSC)C2)cc1 (centres undefined)
2. COc1ccc(CN(C)C(C)C(=O)Nc2ccc(S(=O)(=O)N3CCCCC3)cc2)cc1F (centres undefined)
3. Oc1ccccc1C1OCC2(CO1)COC(c1ccccc1O)OC2 (centres undefined)
4. O=C1CCc2cc(S(=O)(=O)NCCc3ccc(Cl)cc3)cc3c2N1CC3
5. CCOc1ccc(S(=O)(=O)N2CCCCC2)c2ccccc12
6. COc1cc(C(=O)Nc2ccc(S(=O)(=O)Nc3ncccn3)cc2)c([N+](=O)[O-])cc1OC
7. O=C(CCC1CCCC1)NCCS(=O)(=O)N1CCN(c2ccccc2)CC1

-2.61
0.37
1.95
3.62
-5.6
0.74
-5.17

###

Provide the recorded inhibition for the entries that follow.
Molecular target: Genome polyprotein (Dengue virus type 2 (strain 16681-PDK53)) (UniProt P29991)
Sequence (P29991 whole entry, looked up): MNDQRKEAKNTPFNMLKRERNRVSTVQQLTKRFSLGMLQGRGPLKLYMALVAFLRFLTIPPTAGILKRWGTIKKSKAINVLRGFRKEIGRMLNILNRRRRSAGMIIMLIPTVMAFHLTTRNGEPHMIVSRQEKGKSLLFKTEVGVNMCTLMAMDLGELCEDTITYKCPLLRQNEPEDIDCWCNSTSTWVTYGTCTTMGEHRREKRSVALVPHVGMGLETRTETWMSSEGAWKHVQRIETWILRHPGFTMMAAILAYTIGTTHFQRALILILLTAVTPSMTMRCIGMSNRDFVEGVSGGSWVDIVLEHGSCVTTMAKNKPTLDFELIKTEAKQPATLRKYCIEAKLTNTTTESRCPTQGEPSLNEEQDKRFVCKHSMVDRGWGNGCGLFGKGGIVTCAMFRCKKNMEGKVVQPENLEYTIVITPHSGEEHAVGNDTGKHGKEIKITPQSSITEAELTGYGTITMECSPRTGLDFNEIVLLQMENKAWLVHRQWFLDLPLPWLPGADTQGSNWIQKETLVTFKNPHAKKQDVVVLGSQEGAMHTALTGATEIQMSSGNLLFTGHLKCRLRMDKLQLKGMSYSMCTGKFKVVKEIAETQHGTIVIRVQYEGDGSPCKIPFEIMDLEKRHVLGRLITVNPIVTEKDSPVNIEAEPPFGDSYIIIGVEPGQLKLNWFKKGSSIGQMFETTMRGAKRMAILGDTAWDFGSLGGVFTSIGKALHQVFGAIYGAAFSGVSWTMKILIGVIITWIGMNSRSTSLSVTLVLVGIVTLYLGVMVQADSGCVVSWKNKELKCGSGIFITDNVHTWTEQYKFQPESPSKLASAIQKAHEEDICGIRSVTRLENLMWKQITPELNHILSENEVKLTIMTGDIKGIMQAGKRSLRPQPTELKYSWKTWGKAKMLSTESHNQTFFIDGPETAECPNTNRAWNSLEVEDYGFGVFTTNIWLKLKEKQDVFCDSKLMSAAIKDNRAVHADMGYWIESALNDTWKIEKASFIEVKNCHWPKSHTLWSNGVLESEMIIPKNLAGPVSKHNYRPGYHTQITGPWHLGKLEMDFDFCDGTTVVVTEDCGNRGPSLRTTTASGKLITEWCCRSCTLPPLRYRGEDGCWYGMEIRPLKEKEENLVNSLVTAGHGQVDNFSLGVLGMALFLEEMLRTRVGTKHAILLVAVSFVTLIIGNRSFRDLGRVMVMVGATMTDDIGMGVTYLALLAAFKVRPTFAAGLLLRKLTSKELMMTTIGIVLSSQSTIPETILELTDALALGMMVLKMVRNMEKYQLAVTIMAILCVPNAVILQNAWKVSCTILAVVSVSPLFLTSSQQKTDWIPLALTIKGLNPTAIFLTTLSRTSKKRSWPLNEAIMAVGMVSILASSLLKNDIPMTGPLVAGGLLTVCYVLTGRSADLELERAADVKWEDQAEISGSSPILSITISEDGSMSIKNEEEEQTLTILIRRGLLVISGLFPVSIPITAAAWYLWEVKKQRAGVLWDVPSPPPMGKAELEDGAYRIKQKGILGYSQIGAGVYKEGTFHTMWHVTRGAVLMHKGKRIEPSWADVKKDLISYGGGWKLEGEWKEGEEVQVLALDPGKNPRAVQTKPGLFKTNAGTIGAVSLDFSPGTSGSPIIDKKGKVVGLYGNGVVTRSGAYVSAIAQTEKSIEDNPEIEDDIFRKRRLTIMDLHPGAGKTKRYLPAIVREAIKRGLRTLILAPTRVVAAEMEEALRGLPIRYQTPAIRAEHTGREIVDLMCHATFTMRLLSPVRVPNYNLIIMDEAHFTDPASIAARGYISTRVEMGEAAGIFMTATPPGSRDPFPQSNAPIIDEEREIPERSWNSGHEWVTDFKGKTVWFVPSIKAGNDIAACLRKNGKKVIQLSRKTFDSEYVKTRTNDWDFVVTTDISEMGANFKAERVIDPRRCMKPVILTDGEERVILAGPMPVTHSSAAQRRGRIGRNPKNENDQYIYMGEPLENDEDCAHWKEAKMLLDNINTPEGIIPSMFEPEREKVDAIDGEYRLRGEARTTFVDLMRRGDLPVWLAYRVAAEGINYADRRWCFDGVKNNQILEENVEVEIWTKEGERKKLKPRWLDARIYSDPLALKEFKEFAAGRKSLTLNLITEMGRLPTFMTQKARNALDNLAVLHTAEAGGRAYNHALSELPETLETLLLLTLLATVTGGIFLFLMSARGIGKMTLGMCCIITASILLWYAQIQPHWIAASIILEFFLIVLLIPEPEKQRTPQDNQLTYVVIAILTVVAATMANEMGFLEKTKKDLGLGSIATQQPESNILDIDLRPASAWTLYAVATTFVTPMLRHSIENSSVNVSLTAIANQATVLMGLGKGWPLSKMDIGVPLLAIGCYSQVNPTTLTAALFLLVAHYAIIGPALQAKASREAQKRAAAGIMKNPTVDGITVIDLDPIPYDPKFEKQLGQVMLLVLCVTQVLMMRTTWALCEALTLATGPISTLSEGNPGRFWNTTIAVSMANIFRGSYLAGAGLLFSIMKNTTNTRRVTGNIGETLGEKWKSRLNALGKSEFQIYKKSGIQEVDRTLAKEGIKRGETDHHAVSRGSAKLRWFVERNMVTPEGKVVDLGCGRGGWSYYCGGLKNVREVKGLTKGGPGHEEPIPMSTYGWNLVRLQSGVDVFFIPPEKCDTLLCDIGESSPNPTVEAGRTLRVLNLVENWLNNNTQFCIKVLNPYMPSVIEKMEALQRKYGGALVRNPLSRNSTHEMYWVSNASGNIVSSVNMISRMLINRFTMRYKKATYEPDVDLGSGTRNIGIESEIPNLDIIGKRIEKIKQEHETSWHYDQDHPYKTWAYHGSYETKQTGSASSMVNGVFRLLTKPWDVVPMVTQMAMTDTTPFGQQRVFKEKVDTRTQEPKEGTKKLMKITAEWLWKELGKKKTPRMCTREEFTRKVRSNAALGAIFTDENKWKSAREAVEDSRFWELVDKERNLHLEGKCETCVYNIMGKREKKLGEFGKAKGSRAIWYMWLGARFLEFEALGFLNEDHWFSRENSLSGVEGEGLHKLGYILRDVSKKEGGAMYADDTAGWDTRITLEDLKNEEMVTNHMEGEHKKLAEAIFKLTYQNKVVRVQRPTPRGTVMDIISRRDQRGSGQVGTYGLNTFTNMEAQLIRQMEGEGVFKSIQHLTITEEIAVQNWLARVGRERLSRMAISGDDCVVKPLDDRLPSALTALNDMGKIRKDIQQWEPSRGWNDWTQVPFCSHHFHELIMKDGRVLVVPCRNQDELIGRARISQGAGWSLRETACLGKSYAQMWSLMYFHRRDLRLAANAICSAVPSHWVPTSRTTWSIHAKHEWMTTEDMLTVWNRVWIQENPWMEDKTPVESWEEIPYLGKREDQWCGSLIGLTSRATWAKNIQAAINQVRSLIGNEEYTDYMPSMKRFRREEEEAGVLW
Assay: flavivirus cap methylation enzyme inhibition – biochemical, confirmation dose response, primary screen (AID 588689)
Details: Dengue-2 NS5 methyltransferase capping enzyme assay, measured here: pilot screen replicate inhibition, at 25 µM, stronger effect = higher value
Among all 340,000 compounds or so, about 1,000 (0.29%) were called active. These entries were drawn from the full list. Results with a measured potency or affinity are listed apart.
One number for each entry, in %.

molecule	inhibition / %
Cc1ccc(S(=O)(=O)Nc2ccccc2C(N)=O)cc1	-8.21

Look up inhibition for the entries below, preserving their order.
1. CC1(C)CC(=O)C(C(c2cccnc2)C2C(=O)CC(C)(C)CC2=O)C(=O)C1
2. Clc1ccc(/C=C/c2nc3ccccc3[nH]2)c(Cl)c1
3. COc1ccc(/C=N/NC(=O)c2nn(-c3ccc(Cl)cc3)c(=O)c3c(N)scc23)cc1

-0.765
-0.3
10.3

Can you give me inhibition for all of these, one by one?
1. COc1ccc(-n2nc(C(=O)NCC(=O)NCC3CCCO3)c3ccccc3c2=O)cc1 (stereo unspecified)
2. O=C1NC(=S)N/C1=C/c1ccc2ccccc2c1
3. Cc1cccc(CC(=O)Nc2ccon2)c1
4. COc1cccc(Nc2nc3ccccc3nc2NS(=O)(=O)c2cccs2)c1
5. CN(C)/C=C1\C(=O)N(c2ccc(Oc3ccccc3)cc2)CS1=O (stereo unspecified)
6. CCc1ccc(NS(=O)(=O)c2ccc3oc(=O)ccc3c2)cc1
7. CCN1CCN(C(=O)/C=C/c2ccc(OC)cc2)CC1

1. -2.44
2. 2.73
3. 1.51
4. 3.81
5. 4.42
6. 1.83
7. -2.12

###

Hi there, I'd appreciate the recorded inhibition for every entry that follows.
Molecular target: Genome polyprotein (Dengue virus type 2 (strain 16681-PDK53))
Assay: flavivirus cap methylation enzyme inhibition – biochemical, confirmation dose response, primary screen (AID 588689)
Conditions: Dengue-2 NS5 methyltransferase capping enzyme assay, measured here: pilot screen replicate inhibition, at 25 µM, stronger effect = higher value
Screen size: about 340,000 compounds; about 1,000 (0.29%) were called active. Not all results are given here. Results with a measured potency or affinity are listed apart.
Numbers only, in %.

Hey, quick one: what's inhibition for each of these?
1. CC#CCN1C=C(C(=O)OCC)C(C)N(Cc2ccc(Br)cc2)S1(=O)=O (configuration not stated)
2. CCCn1c(SCc2cc(=O)[nH]c3ccccc23)nc2c1c(=O)n(C)c(=O)n2C

1: -3.33; 2: -0.155

###

Target: Genome polyprotein (Dengue virus type 2 (strain 16681-PDK53))
Assay: flavivirus cap methylation enzyme inhibition – biochemical, confirmation dose response, primary screen (AID 588689)
Settings: Dengue-2 NS5 methyltransferase capping enzyme assay, at 25 µM, stronger effect = higher value
In all, about 340,000 compounds went through this assay and about 1,000 (0.29%) were called active. Only a sample is shown. Entries with a potency or affinity are not part of this list.
readout_kind: inhibition (%)
Numbers only, in %.

Solved cases below.
compound	units	inhibition
Cc1ccc(S(=O)(=O)Nc2nc(-c3ccccc3)cs2)cc1	%	23
COCc1c(Br)c(C)nc(OCC(=O)O)c1C#N	%	0.8
COc1ccc(-n2c(=O)cc(N3CC(C)OC(C)C3)[nH]c2=O)cc1 (stereo unspecified)	%	-3.21
O=C(NO)C1CC2C=CC1C2 (stereo unspecified)	%	-6.15
CSCCC(C(=O)OCC(=O)c1ccc(C)c(C)c1)N1C(=O)c2cc(Cl)c(Cl)cc2C1=O (stereo unspecified)	%	10.7
NC(N)=N/N=C/c1ccc(OCc2ccccc2Cl)cc1	%	-0.7
O=C(c1ccco1)N1CCN(S(=O)(=O)c2cccc(C(F)(F)F)c2)CC1	%	0
CCN(CC)CCN(Cc1cc2cc3c(cc2[nH]c1=O)OCO3)C(=S)NCCCOC	%	-4.77
O=C(O)/C(=C/c1ccc(Cl)c([N+](=O)[O-])c1)c1ccc(S(=O)(=O)N2CCCCC2)s1	%	15.9
COCc1cc(=O)n2[nH]c(C)cc2n1	%	-5.47

For each listed entry, give its inhibition.
1. O=C1C(=O)N(CCCn2ccnc2)C(c2ccc([N+](=O)[O-])cc2)/C1=C(\O)c1ccc2c(c1)OCCO2 (stereo unspecified)
2. COc1ccc([N+](=O)[O-])cc1NS(=O)(=O)Cc1ccccc1

[-1.86, -3.44]

###

Biological target: Genome polyprotein (Dengue virus type 2 (strain 16681-PDK53)) (UniProt P29991)
Assay: flavivirus cap methylation enzyme inhibition – biochemical, confirmation dose response, primary screen (AID 588689)
Conditions: Dengue-2 NS5 methyltransferase capping enzyme assay, at 25 µM, stronger effect = higher value
Hit rate of the full screen: of about 340,000 compounds, about 1,000 (0.29%) were called active. Only a sample is shown. Potency and affinity values are given separately.
readout_kind: inhibition (%)
Give bare numbers, in %.

compound	experimental_result
Cc1nc2ccc(NC(=O)c3ccc([N+](=O)[O-])cc3[N+](=O)[O-])cc2s1	-5.18
COc1cccc(N(C(=O)c2snc(C(N)=O)c2N)C(C(=O)NCC2CCCO2)c2ccc(F)cc2)c1 (configuration not stated)	-6.68

Report inhibition for every entry below.
1. COCCCN1Cc2cccc(C(=O)O)c2C1=O
2. O=C(O)CN1CCN(Cc2cccc(Cl)c2)C1=O
3. COc1cccc(Nc2nc(N)nc(-c3oc4ccccc4c3C)n2)c1
4. CCOC(=O)c1c(NC(=O)C2C3C=CC(C3)C2C(=O)O)sc2c1CCC(C)C2 (configuration not stated)
5. CCCCc1nc2ccc(S(=O)(=O)O)cc2[nH]1
6. CC(=C\C(=O)O)/C(=C\c1cccc2ccccc12)C(=O)O

[-4.84, -1.31, -4.01, -2.91, -2.87, -1.16]

Would you mind giving inhibition for every compound in the list below?
1. O=C(NC(=O)c1ccccc1)OCCN1C(=O)c2ccccc2C1=O
2. CCOC(=O)c1c(NC(=O)C2C3C=CC(C3)C2C(=O)O)sc2c1CC(C)CC2 (configuration not stated)
3. CC(C(=O)Nc1ccccc1F)N1C(=O)c2ccccc2C1=O (configuration not stated)
4. N#CCCN(C(=O)COC(=O)Cc1ccc(Br)cc1)c1ccccc1

1. -5.92
2. 7.29
3. 4.32
4. -13.2

# batch: return inhibition for each of the 2 compounds below
1. CCN(CC)S(=O)(=O)c1cc(NC(=O)CSc2nnc(N)s2)ccc1C
2. CCCc1nc(SCC(=O)Nc2nc3c(s2)CCCC3)c2ccccc2n1

0.37
2.76

Give measured inhibition for every item shown.
1. COc1cccc2c1C(=O)C=C(C)C2=O
2. Cc1nc(N2CCOCC2)[nH]c(=O)c1CCC(C)C
3. CS(=O)(=O)NCc1nnc(SCc2c(F)cccc2Cl)o1

5.85
-3.29
-7.53
